List of pKd values.
TARGET DESC: T1, EsCas13d, nuclease-dead (Eubacterium siraeum, UniProt B0MS50, R295A;H300A;R849A;H854A)
T1 sequence: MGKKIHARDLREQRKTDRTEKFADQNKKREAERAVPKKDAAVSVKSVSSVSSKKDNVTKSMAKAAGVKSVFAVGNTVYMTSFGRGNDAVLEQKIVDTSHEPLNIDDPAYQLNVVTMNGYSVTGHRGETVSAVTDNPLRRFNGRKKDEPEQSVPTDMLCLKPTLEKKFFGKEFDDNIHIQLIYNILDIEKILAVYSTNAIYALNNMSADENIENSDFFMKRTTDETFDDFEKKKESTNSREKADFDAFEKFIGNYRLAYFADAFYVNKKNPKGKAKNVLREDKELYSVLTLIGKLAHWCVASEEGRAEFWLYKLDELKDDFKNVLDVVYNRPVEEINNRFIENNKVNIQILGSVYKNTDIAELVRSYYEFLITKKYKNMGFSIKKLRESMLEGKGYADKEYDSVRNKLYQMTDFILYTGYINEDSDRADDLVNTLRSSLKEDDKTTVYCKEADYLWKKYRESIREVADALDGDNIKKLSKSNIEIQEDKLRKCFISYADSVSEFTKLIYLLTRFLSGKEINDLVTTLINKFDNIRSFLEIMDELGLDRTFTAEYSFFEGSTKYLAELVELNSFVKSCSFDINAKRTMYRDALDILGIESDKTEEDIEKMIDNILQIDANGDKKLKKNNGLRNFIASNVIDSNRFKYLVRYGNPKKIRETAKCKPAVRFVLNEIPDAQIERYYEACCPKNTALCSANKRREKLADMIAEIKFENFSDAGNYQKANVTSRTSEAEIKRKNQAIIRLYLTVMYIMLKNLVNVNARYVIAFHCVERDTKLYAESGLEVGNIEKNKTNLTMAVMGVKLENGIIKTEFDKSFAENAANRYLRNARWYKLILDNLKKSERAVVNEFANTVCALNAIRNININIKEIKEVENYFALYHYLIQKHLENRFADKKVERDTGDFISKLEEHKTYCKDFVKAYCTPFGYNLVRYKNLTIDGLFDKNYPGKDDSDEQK
TEST DETAILS: crRNA (strand 1, pre-loaded); Mg2+; 40 mM Tris-HCl pH 7.5, 150 mM NaCl, 6 mM MgCl2, 1 mM DTT, 0.1% Tween-20, 0.2 mg/ml BSA; 25 C; 10 min per concentration, then washed
SETTINGS: tags: His6-TwinStrep-SUMO cleaved; N-terminal SNAP kept (SNAP-Surface 488); label: 3' end held by stalled T7 RNA polymerase
// pKd here means minus log10 of the molar concentration (mol/L)

target 1 insG 3' of 6,insG 3' of 6 (mixed) RNA 1: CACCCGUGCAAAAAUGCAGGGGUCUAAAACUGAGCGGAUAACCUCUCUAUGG RNA 2: GGGAAUGGAUCCACAUCUACGAAUUCGUACCAUAGAGAGGUUAUCCGGGCUCACCGAGAUCGGAAGAGCACACGU    7.94

Input line: I would be grateful if you could share the reported pKd for target 1 insA 3' of 7,insG 3' of 2 (mixed) RNA 1: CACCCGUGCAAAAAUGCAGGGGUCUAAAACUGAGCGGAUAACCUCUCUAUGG RNA 2: GGGAAUGGAUCCACAUCUACGAAUUCGUACCAUAGAGAGGUUAUCACGCUCGACCGAGAUCGGAAGAGCACACGU .
Output line: 8.13
